assay: recombinant UMI read abundance after kanamycin selection (control-corrected) (log10(CPM+1)); higher = more efficient recombination; extreme values may be limits of the assay; sequences stand for … in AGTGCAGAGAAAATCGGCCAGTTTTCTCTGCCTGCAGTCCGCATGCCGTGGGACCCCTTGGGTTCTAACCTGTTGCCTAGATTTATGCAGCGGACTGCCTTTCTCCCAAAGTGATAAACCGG…AGGTTGGTTTCACT; site = the 11-nt donor;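 also: IS621 bridge recombinase in Escherichia coli cells against a fixed T5 target plasmid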
parameterMeasured: recombinant UMI read abundance (log10)
Form: value (number only, do not type unit).

Entry AGATCGACATGGACCGGTTTTCCCGGTAATCCGTATTTGTT (site GGATCGACTAA) : reported recombinant UMI read abundance (log10) = ?
0.012

Entry CCCGGTCCATGGACCGGTTTTCCCGGTAATCCGTATTTGAA (site CCCGGTCCTTA) : reported recombinant UMI read abundance (log10) = ?
0

Entry GCGACAACATGGACCGGTTTTCCCGGTAATCCGTATTTGCT (site GCGACAACTAG) : reported recombinant UMI read abundance (log10) = ?
1.97

Entry CTACGCTCATGGACCGGTTTTCCCGGTAATCCGTATTTGAT (site CTACGCTCTAT) : reported recombinant UMI read abundance (log10) = ?
2.86

Entry GTGGATGCATGGACCGGTTTTCCCGGTAATCCGTATTTGGT (site GTGAATGCTAC) : reported recombinant UMI read abundance (log10) = ?
2.1

Entry CAGTCGGCATGGACCGGTTTTCCCGGTAATCCGTATTTGGT (site CAGTCGGCTAC) : reported recombinant UMI read abundance (log10) = ?
0.814

Entry GGTGTGACATGGACCGGTTTTCCCGGTAATCCGTATTTGTG (site GGTGTGACTCA) : reported recombinant UMI read abundance (log10) = ?
0.68

Entry ATCCCTTCATGGACCGGTTTTCCCGGTAATCCGTATTTGTG (site ATCCCTTCTCA) : reported recombinant UMI read abundance (log10) = ?
0.0697

Entry GAATCATCATGGACCGGTTTTCCCGGTAATCCGTATTTGCT (site GAATCATCTAG) : reported recombinant UMI read abundance (log10) = ?
1.95

Entry CTCCTTACATGGACCGGTTTTCCCGGTAATCCGTATTTGAG (site CTCCCTACTCT) : reported recombinant UMI read abundance (log10) = ?
0.00731

Entry CTATCATCATGGACCGGTTTTCCCGGTAATCCGTATTTGCT (site CCATCATCTAG) : reported recombinant UMI read abundance (log10) = ?
0.932

Entry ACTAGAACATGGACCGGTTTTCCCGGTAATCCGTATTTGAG (site ACTAGACCTCT) : reported recombinant UMI read abundance (log10) = ?
0.00567

Entry ATACGCACATGGACCGGTTTTCCCGGTAATCCGTATTTGAA (site ATACGCACTTT) : reported recombinant UMI read abundance (log10) = ?
1.55

Entry TTTTCGGCATGGACCGGTTTTCCCGGTAATCCGTATTTGCT (site TTTTCGGCTAG) : reported recombinant UMI read abundance (log10) = ?
0.0145

Entry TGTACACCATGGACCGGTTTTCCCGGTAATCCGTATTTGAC (site TGTAGACCTGT) : reported recombinant UMI read abundance (log10) = ?
0

Entry TAGGAATCATGGACCGGTTTTCCCGGTAATCCGTATTTGCT (site TAGGAATCTTG) : reported recombinant UMI read abundance (log10) = ?
1.5

Entry GTTGAGGCATGGACCGGTTTTCCCGGTAATCCGTATTTGTG (site GTAGAGGCTCA) : reported recombinant UMI read abundance (log10) = ?
1.5

Entry ACCCTCTCATGGACCGGTTTTCCCGGTAATCCGTATTTGGG (site ACCCTCTCTCC) : reported recombinant UMI read abundance (log10) = ?
0.0124

The origin of these recorded values is the supplement of paper PMC11208160.
